In this section, each of the molecules is paired with its reported solubility.
Assay: Solubility of the compound
Format: physicochemical
measured-parameter: solubility

>>> value_measured("Cc1cc(C#N)cc(C)c1Oc1cc(Cl)nc(NC2CCN(Cc3ccc(S(C)(=O)=O)cc3)CC2)c1")
"> 48 µM"
>>> value_measured("Cc1cc(C)c(Oc2cc(Cl)nc(NC3CCN(Cc4ccc(C(N)=O)cc4)CC3)c2)c(C)c1")
"> 52 µM"
>>> value_measured("Cc1cc(C#N)cc(C)c1Oc1cc(Cl)nc(NC2CCN(Cc3ccc(C(N)=O)cc3)CC2)c1")
"> 51 µM"
>>> value_measured("Cc1cc(C#N)cc(C)c1Oc1cc(Cl)nc(Nc2ccc(C#N)cc2)c1")
"> 3 µM"
>>> value_measured("COc1cc(Oc2c(C)cc(C#N)cc2C)cc(NC2CCN(CC3CC3)CC2)n1")
"> 307 µM"
>>> value_measured("Cc1cc(C)c(Oc2cc(Cl)nc(NC3CCN(Cc4ccncc4)CC3)c2)c(C)c1")
"> 57 µM"
>>> value_measured("Cc1cc(C)c(Oc2cc(Cl)nc(NC3CCN(CC4CCC4)CC3)c2)c(C)c1")
"> 60 µM"

----------
Assay: Cytotoxicity against mock-infected human MT4 cells assessed as reduction in cell viability after 5 days by MTT assay
Assay type: toxicity, cell-based
In this section, each of the molecules is paired with its reported CC50 at 120 h.
measured-parameter: CC50 at 120 h (µM)

>>> value_measured("COc1cc(Oc2c(C)cc(C#N)cc2C)cc(NC2CCN(Cc3ccc(S(N)(=O)=O)cc3)CC2)n1")
10
>>> value_measured("Cc1cc(C#N)cc(C)c1Oc1cc(Cl)nc(NC2CCN(Cc3ccc(C(N)=O)cc3)CC2)c1")
9.8
>>> value_measured("COc1cc(Oc2c(C)cc(C#N)cc2C)cc(NC2CCN(Cc3ccc(C(N)=O)cc3)CC2)n1")
22.9

----------
Assay: Cytotoxicity against mock-infected human MT4 cells assessed as reduction in cell viability after 5 days by MTT assay
Type: toxicity, cell-based
In this section, each of the compounds is paired with its reported CC50 at 120 h.
measured-parameter: CC50 at 120 h

>>> value_measured("Cc1cc(C)c(Oc2cc(Cl)nc(NC3CCN(Cc4ccc(C(N)=O)cc4)CC3)c2)c(C)c1")
"8.2 µM"
>>> value_measured("CC(C)Nc1cccnc1N1CCN(C(=O)c2cc3cc(NS(C)(=O)=O)ccc3[nH]2)CC1")
"> 36.2 µM"
>>> value_measured("Cc1cc(C#N)cc(C)c1Oc1cc(Cl)nc(NC2CCN(Cc3ccc(S(N)(=O)=O)cc3)CC2)c1")
"7 µM"
>>> value_measured("Cc1cn([C@H]2C[C@H](N=[N+]=[N-])[C@@H](CO)O2)c(=O)[nH]c1=O")
"> 93.5 µM"
>>> value_measured("Cc1cc(C)c(Oc2cc(Cl)nc(NC3CCN(Cc4ccncc4)CC3)c2)c(C)c1")
"10.4 µM"
>>> value_measured("Cc1cc(C#N)cc(C)c1Oc1cc(Cl)nc(NC2CCN(Cc3ccncc3)CC2)c1")
"9.7 µM"
>>> value_measured("Cc1cc(C#N)cc(C)c1Oc1cc(Cl)nc(NC2CCN(CC3CCC3)CC2)c1")
"4.2 µM"
>>> value_measured("Cc1cc(C)c(Oc2cc(Cl)nc(NC3CCN(Cc4ccc(S(N)(=O)=O)cc4)CC3)c2)c(C)c1")
"5.4 µM"
>>> value_measured("Cc1cc(C)c(Oc2cc(Cl)nc(NC3CCN(CC4CCC4)CC3)c2)c(C)c1")
"4.6 µM"

----------
Assay: Selectivity index, ratio of CC50 for mock-infected human MT4 cells to EC50 for HIV1 RES056 expressing reverse transcriptase K103N/Y181C double mutant
Assay type: toxicity, cell-based
Conditions: read-out: Ratio CC50/EC50
measured-parameter: selectivity ratio

>>> value_measured("Cc1cc(C)c(Oc2cc(Cl)nc(NC3CCN(Cc4ccccc4)CC3)c2)c(C)c1")
"< 1"
>>> value_measured("Cc1cc(C#N)cc(C)c1Oc1cc(Cl)nc(NC2CCN(Cc3ccc(C(N)=O)cc3)CC2)c1")
"≤ 1"
>>> value_measured("Cc1cc(C#N)cc(C)c1Oc1cc(Cl)nc(NC2CCN(Cc3ccc(S(N)(=O)=O)cc3)CC2)c1")
"< 1"
>>> value_measured("COc1cc(Oc2c(C)cc(C#N)cc2C)cc(NC2CCN(Cc3ccccc3)CC2)n1")
"< 1"
>>> value_measured("Cc1cc(C#N)cc(C)c1Oc1cc(Cl)nc(NC2CCN(CC3CCC3)CC2)c1")
"< 1"
>>> value_measured("Cc1cc(C#N)cc(C)c1Oc1cc(Cl)nc(Nc2ccc(CN3CCOCC3)cc2)c1")
"< 1"
>>> value_measured("Cc1cc(C)c(Oc2cc(Cl)nc(NC3CCN(Cc4ccc(S(N)(=O)=O)cc4)CC3)c2)c(C)c1")
"≤ 1"
>>> value_measured("Cc1cc(C)c(Oc2cc(Nc3ccc(C#N)cc3)nc(OCCCN3CCOCC3)c2)c(C)c1")
"< 1"
>>> value_measured("Cc1cc(C)c(Oc2cc(Cl)nc(Nc3ccc(CN4CCOCC4)cc3)c2)c(C)c1")
"< 1"
>>> value_measured("Cc1cc(C#N)cc(C)c1Oc1cc(Cl)nc(NC2CCN(Cc3ccccc3)CC2)c1")
"< 1"
>>> value_measured("Cc1cc(C#N)cc(C)c1Oc1cc(Cl)nc(NC2CCN(Cc3ccc(S(C)(=O)=O)cc3)CC2)c1")
"< 1"
>>> value_measured("Cc1cc(C)c(Oc2cc(Cl)nc(Nc3ccc(C#N)cc3)c2)c(C)c1")
"< 1"
>>> value_measured("COc1cc(Oc2c(C)cc(C#N)cc2C)cc(NC2CCN(Cc3ccncc3)CC2)n1")
3

----------
Test system: Human immunodeficiency virus 1
Test: Antiviral activity against HIV1 3B expressing wild type reverse transcriptase infected in human MT4 cells assessed as protection against virus-induced cytopathic effect after 5 days by MTT assay
Assay type: functional, cell-based
Conditions: Human immunodeficiency virus 1, 3B, MT4, 120 h
In this section, each of the compounds is paired with its reported EC50.
measured-parameter: EC50 (nM)

>>> value_measured("Cc1cc(C)c(Oc2cc(Cl)nc(NC3CCN(Cc4ccc(S(C)(=O)=O)cc4)CC3)c2)c(C)c1")
25
>>> value_measured("Cc1cc(C)c(Oc2cc(Cl)nc(NC3CCN(Cc4ccccc4)CC3)c2)c(C)c1")
150
>>> value_measured("Cc1cc(C#N)cc(C)c1Oc1cc(Cl)nc(NC2CCN(Cc3ccc(S(N)(=O)=O)cc3)CC2)c1")
7.4
>>> value_measured("Cc1cc(C#N)cc(C)c1Oc1nc(Nc2ccc(C#N)cc2)nc(N)c1Br")
9.5
>>> value_measured("Cc1cc(C#N)cc(C)c1Oc1cc(Cl)nc(Nc2ccc(C#N)cc2)c1")
1070
>>> value_measured("Cc1cc(C)c(Oc2cc(Cl)nc(Nc3ccc(CN4CCOCC4)cc3)c2)c(C)c1")
2400
>>> value_measured("COc1cc(Oc2c(C)cc(C#N)cc2C)cc(NC2CCN(Cc3ccc(C(N)=O)cc3)CC2)n1")
20
>>> value_measured("Cc1cc(C#N)cc(C)c1Oc1cc(Cl)nc(NC2CCN(Cc3ccc(C(N)=O)cc3)CC2)c1")
10

----------
In this section, each of the molecules is paired with its reported selectivity ratio.
Test: Selectivity index, ratio of CC50 for mock-infected human MT4 cells to EC50 for HIV1 RES056 expressing reverse transcriptase K103N/Y181C double mutant
Type: toxicity, cell-based
Details: read-out: Ratio CC50/EC50
measured-parameter: selectivity ratio

>>> value_measured("Cc1cc(C#N)cc(C)c1Oc1cc(Cl)nc(NC2CCN(Cc3ccncc3)CC2)c1")
"≤ 1"
>>> value_measured("Cc1cc(C)c(Oc2cc(Cl)nc(NC3CCN(Cc4ccc(C(N)=O)cc4)CC3)c2)c(C)c1")
"< 1"
>>> value_measured("COc1cc(Oc2c(C)cc(C#N)cc2C)cc(NC2CCN(Cc3ccc(S(N)(=O)=O)cc3)CC2)n1")
1
>>> value_measured("Cc1cc(C#N)cc(C)c1Oc1cc(Cl)nc(Nc2ccc(C#N)cc2)c1")
"< 1"
>>> value_measured("Cc1cc(C)c(Oc2cc(Cl)nc(NC3CCN(Cc4ccc(S(C)(=O)=O)cc4)CC3)c2)c(C)c1")
"< 1"
>>> value_measured("COc1cc(Oc2c(C)cc(C#N)cc2C)cc(NC2CCN(Cc3ccc(C(N)=O)cc3)CC2)n1")
"≤ 3"
>>> value_measured("COc1cc(Oc2c(C)cc(C#N)cc2C)cc(NC2CCN(Cc3ccc(S(C)(=O)=O)cc3)CC2)n1")
"< 1"
>>> value_measured("Cc1cc(C)c(Oc2cc(Cl)nc(NC3CCN(Cc4ccncc4)CC3)c2)c(C)c1")
"≤ 1"
>>> value_measured("Cc1cn([C@H]2C[C@H](N=[N+]=[N-])[C@@H](CO)O2)c(=O)[nH]c1=O [ZIDOVUDINE]")
"> 15000"
